For each of the sequences below, state its protein stability index.
Assay: protein stability index of a GFP-peptide fusion (GPS, HEK-293T) (PSI 1-6); higher = more stable;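 further: 24-mer peptide tiles fused after GFP, lentivirally expressed, FACS-sorted into six equal bins by GFP/DsRed ratio, decoded by Illumina sequencing, PSI is the read-weighted mean bin number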
Settings: treatment: MLN4924 1 uM, 8 h; c terminus: a fixed tail appended
Enter the number alone.

Recorded result, DRVVAFMDHIRIFQEQVEKLKALH [NR2F2] , protein stability index: 2.22

Recorded result, PSSYNCSQSILPLEHGSIYIPSSY [ESR2] , protein stability index: 2.26

Recorded result, DSPENMMRHIRFLKNEVERLKKQL [CCDC6] , protein stability index: 4.45

Recorded result, VQKNILAAASPYIRTKLNYNPPKD [GAN] , protein stability index: 3.24

Recorded result, FEEPEDPSNRSFFSEIISSISDVK [PPP2R2B] , protein stability index: 4.32

Recorded result, AAARGGQCPGLGPAPTPTPPGRLG [ZBED3] , protein stability index: 4.63

Recorded result, NTLSVSYKKGRMMKDISNLEENDE [SLC6A17] , protein stability index: 5.08

Recorded result, AQSEAEKKLKKDDKKKELQELNEL [ZC3H15] , protein stability index: 5.53

Recorded result, EAASFLQILPVLDFCKVFLISGVT [KLHL13] , protein stability index: 2.96

Recorded result, RPTYTPPSIMPQKHWVYVKRGGNC [ZBTB22] , protein stability index: 3.06

Recorded result, MSTEEQYRIRQVNIYYYLEDDSMS [EFHC1] , protein stability index: 2.13

Recorded result, VFSFGKHYWELDVDNSCDWALGVC [TRIM43] , protein stability index: 2.54

Recorded result, EPVAEIGVGAYGTVYKARDPHSGH [CDK4] , protein stability index: 4.1

Recorded result, QAMFDTLGIPKSTTSDIPHMLNQV [FAM98B] , protein stability index: 3.23

Recorded result, GRTENGALAPKQELPSALESHEVP [ZNF24] , protein stability index: 5.27

Recorded result, SEFLKRFVEATRKWKVGIPSDPLV [ALDH8A1] , protein stability index: 2.05

Recorded result, WYSPYAKTLQPTKQPNCSSLFKLK [PLD5] , protein stability index: 2.79

Recorded result, KGERRREPGGYDSSSTLMSSELET [DVL3] , protein stability index: 5.15

Recorded result, MTAPAGPRGSETERLLTPNPGYGT [MCOLN1] , protein stability index: 4.2

Recorded result, LFNLSNFLDKSGSHGYDMSTFIRR [SNAP91] , protein stability index: 2.25

Recorded result, AVCLLGVGTMVGADILAGREDNSG [SLC35F2] , protein stability index: 3.11

Recorded result, LTYSTRMSQTVQRMLVAASWACAF [OR3A1] , protein stability index: 3

Recorded result, LKTADWRVFLFQAPSKEEMLSWIL [PSD2] , protein stability index: 2.04

Recorded result, KSEEGHPFKAYLDVDITLSSEAFH [RTN3] , protein stability index: 2.67

Recorded result, FLCAAGDAGEESRVQVLKNEVRRG [TIAF1] , protein stability index: 4.22

Recorded result, PDPDAWLRALGELLRRDLGVGTSM [FANCE] , protein stability index: 1.9

Recorded result, EGYKDADYWLRRFEAEPLPENTNR [PI4K2A] , protein stability index: 4.41

Cited source for all entries: the supplement of paper PMC10567573
